Reported Kd values are given for each entry in this list.
Target: pmGAG (Zif268-C7 finger 2 variant) finger 2 helix -2 to 6 = SRSDNLVR in Zif268-C7 (synthetic) (UniProt P08046)
Assay: EMSA
Settings: [7-9,26-28]
The response must be a number in nM with no trailing unit.

>  <residue.string>
GGACGCCTCCGCGGGTTTTCCCGCGGAGGCGTCC [F2 site GAG]

>  <Kd / nM>
1

$$$$

Next item in the queue.
Query: # input sequence: GGACGCCCCCGCGGGTTTTCCCGCGGGGGCGTCC [F2 site GGG] ; wanted: its Kd
Reply: 45

---

Target: pGTA (Zif268-C7 finger 2 variant) finger 2 helix -2 to 6 = SQSSSLVR in Zif268-C7 (synthetic) (UniProt P08046)
Experiment: EMSA
Conditions: [7-9,26-28]
property.measured: Kd

Query: # input sequence: GGACGCCACCGCGGGTTTTCCCGCGGTGGCGTCC [F2 site GTG] ; wanted: its Kd
Reply: > 1000 nM

The measurements presented in this section are drawn from patent US20030186841.
